Property: MIC; scope: individual compounds
Test system: Candida albicans
assay method text: Antifungal activity against Candida albicans
Format: functional

{"columns": ["compound", "observation type", "assay result"],
 "data": [
  ["COc1ccc(C(=O)/C=C/c2cc3cc(C)ccc3n3nnnc23)cc1", "MIC", "6.25 to 100 µg/mL"]
]}

// lookup MIC for Cc1ccc2cc(C3CC(c4cccs4)=NN3C(N)=S)c3nnnn3c2c1 (stereo unspecified)
3.12 to 100 µg/mL

// lookup MIC for O=[N+]([O-])c1ccc(-c2nnnn2-c2nc3ccccc3s2)cc1
50 to 100 µg/mL

// lookup MIC for O=C(O)c1cn(C2CC2)c2cc(N3CCNCC3)c(F)cc2c1=O
25 to 50 µg/mL

// lookup MIC for Cc1ccc2cc(/C=C/C(=O)c3ccc(Cl)cc3)c3nnnn3c2c1
6.25 to 100 µg/mL

// lookup MIC for CCCCCC(O)C(C(CCCCCCC(=O)OCCn1c([N+](=O)[O-])cnc1C)n1nnnc1C)n1nnnc1C (stereo unspecified)
124 µg/mL

// lookup MIC for CN(C)c1ccc(-c2nnnn2-c2nc3ccccc3s2)cc1
50 to 100 µg/mL

// lookup MIC for COc1cc(-c2nnnn2-c2nc3ccccc3s2)cc(OC)c1OC
50 to 100 µg/mL

// lookup MIC for CC(=O)N1CCN(c2ccc(OCC3COC(Cn4ccnc4)(c4ccc(Cl)cc4Cl)O3)cc2)CC1 (stereo unspecified)
100 µg/mL

----------
Test system: Escherichia coli
assay method text: Antimicrobial activity against Escherichia coli
Assay type: functional
Property: MIC; scope: individual compounds

{"columns": ["compound", "MIC"],
 "data": [
  ["COc1cccc(OC)c1/C=C1\\SC(=O)N(Cc2ccc(-c3ccccc3-c3nnn[nH]3)cc2)C1=O", "8.58 µg/mL"],
  ["O=C(O)c1cn(C2CC2)c2cc(N3CCN(C(=O)CCSc4nnnn4-c4ccc(Br)cc4)CC3)c(F)cc2c1=O", "15.6 µg/mL"],
  ["Cc1ccc2cc(/C=C/C(=O)c3ccccc3)c3nnnn3c2c1", "6.25 to 100 µg/mL"]
]}

// lookup MIC for OC(Cn1cncn1)(Cn1cncn1)c1ccc(F)cc1F [FLUCONAZOLE]
25 µg/mL

// lookup MIC for Oc1ccc(-c2nnnn2-c2nc3ccccc3s2)cc1
50 to 100 µg/mL

// lookup MIC for Cc1ccc2cc(/C=C/C(=O)c3ccccn3)c3nnnn3c2c1
6.25 to 100 µg/mL

----------
assay method text: AUC in rat
Type: ADME
measurement parameters: in vivo
observation type: AUC (ng·h/mL)
Express your answer in ng·h/mL, writing the number without its unit.

// lookup AUC for C[C@@H](O)[C@H]1C(=O)N2C(C(=O)O)=C(SCCN=CN)C[C@H]12 [IMIPENEM ANHYDROUS]
5500

----------
Property: MIC; scope: individual compounds
Tested on: Bacillus subtilis
assay method text: Antimicrobial activity against Bacillus subtilis NCIM 2250 after 48 hrs by NCCLS protocol based method
Assay type: functional
measurement parameters: NCIM 2250, 48 h

Please review the entries below; each comes with its answer.
{"columns": ["compound", "MIC"],
 "data": [
  ["CCOC(=O)C(C#N)C(c1cc2cc(OC)ccc2n2nnnc12)P(=O)(OCC)OCC (stereo unspecified)", "10 to 20 µg/mL"],
  ["CCOC(=O)C(C#N)C(c1cc2ccc(C)cc2n2nnnc12)P(=O)(OCC)OCC (stereo unspecified)", "10 to 20 µg/mL"],
  ["COC1=CC(=O)C[C@@H](C)[C@]12Oc1c(Cl)c(OC)cc(OC)c1C2=O", "10 µg/mL"],
  ["CCOC(=O)C(C#N)C(c1cc2c(C)cccc2n2nnnc12)P(=O)(OCC)OCC (stereo unspecified)", "10 to 20 µg/mL"],
  ["CCOC(=O)C(C#N)C(c1cc2c(OCC)cccc2n2nnnc12)P(=O)(OCC)OCC (stereo unspecified)", "10 to 20 µg/mL"]
]}

// lookup MIC for CCOC(=O)C(C#N)C(c1cc2ccccc2n2nnnc12)P(=O)(OCC)OCC (stereo unspecified)
10 to 20 µg/mL

// lookup MIC for CCOC(=O)C(C#N)C(c1cc2ccc(OC)cc2n2nnnc12)P(=O)(OCC)OCC (stereo unspecified)
10 µg/mL

----------
Test system: Klebsiella pneumoniae
assay method text: Antimicrobial activity against Klebsiella pneumoniae ATCC 700603 assessed as zone of inhibition at 100 ug/ml after 24 hrs by disc diffusion method
Type: functional
measurement parameters: ATCC 700603, 24 h, read-out: IZ
Property: zone of inhibition at 100 µg/mL; scope: individual compounds

{"columns": ["entry smiles", "observation type", "assay result"],
 "data": [
  ["CC1(C)S[C@@H]2[C@H](NC(=O)[C@H](N)c3ccccc3)C(=O)N2[C@H]1C(=O)O", "zone of inhibition at 100 µg/mL", "15 mm"],
  ["COc1nc(N)nc(OC)c1Sc1nnnn1CC1CCCCC1", "zone of inhibition at 100 µg/mL", "10 to 24 mm"],
  ["COc1nc(N)nc(OC)c1Sc1nnnn1CC1CC1", "zone of inhibition at 100 µg/mL", "10 to 24 mm"]
]}

// lookup zone of inhibition at 100 µg/mL for CCCCn1nnnc1Sc1c(OC)nc(N)nc1OC
10 to 24 mm

// lookup zone of inhibition at 100 µg/mL for CCCn1nnnc1Sc1c(OC)nc(N)nc1OC
24 mm

// lookup zone of inhibition at 100 µg/mL for CC[C@H]1OC(=O)[C@H](C)[C@@H](O[C@H]2C[C@@](C)(OC)[C@@H](O)[C@H](C)O2)[C@H](C)[C@@H](O[C@@H]2O[C@H](C)C[C@H](N(C)C)[C@H]2O)[C@](C)(O)C[C@@H](C)C(=O)[C@H](C)[C@@H](O)[C@]1(C)O
10 to 24 mm

// lookup zone of inhibition at 100 µg/mL for CCCCCCn1nnnc1Sc1c(OC)nc(N)nc1OC
10 to 24 mm

// lookup zone of inhibition at 100 µg/mL for COc1nc(N)nc(OC)c1Sc1nnnn1Cc1ccccc1
10 to 24 mm

----------
Property: GI50; scope: individual compounds
Tested on: PANC-1
assay method text: Growth inhibition of human PANC1 cells
Assay type: functional

Please review the entries below; each comes with its answer.
{"columns": ["entry smiles", "GI50"],
 "data": [
  ["COc1cc(-n2nnnc2SCCC(=O)N2CCN(c3cc4c(cc3F)c(=O)c(C(=O)O)cn4C3CC3)CC2)cc(OC)c1OC", "≤ 1 µM"],
  ["O=C(O)c1cn(C2CC2)c2cc(N3CCN(C(=O)CCSc4nnnn4-c4ccccc4)CC3)c(F)cc2c1=O", "≤ 1 µM"],
  ["O=C(O)c1cn(C2CC2)c2cc(N3CCN(C(=O)CCSc4nnnn4Cc4ccccc4)CC3)c(F)cc2c1=O", "≤ 1 µM"]
]}

// lookup GI50 for CCn1cc(C(=O)O)c(=O)c2cnc(N3CCN(C(=O)CCSc4nnnn4-c4ccc(Br)cc4)CC3)nc21
0.07 to 0.22 µM

// lookup GI50 for O=C(O)c1cn(C2CC2)c2cc(N3CCN(C(=O)CCSc4nnnn4-c4ccc(F)c(F)c4F)CC3)c(F)cc2c1=O
≤ 1 µM

// lookup GI50 for O=C(O)c1cn(C2CC2)c2cc(N3CCN(C(=O)CCSc4nnnn4-c4ccc(C(F)(F)F)cc4)CC3)c(F)cc2c1=O
≤ 1 µM

----------
Tested on: Micrococcus luteus
assay method text: Antibacterial activity against Micrococcus luteus
Assay type: functional
Property: MIC; scope: individual compounds

Please review the entries below; each comes with its answer.
{"columns": ["entry smiles", "MIC"],
 "data": [
  ["O=C(O)c1cn(C2CC2)c2cc(N3CCNCC3)c(F)cc2c1=O", "25 to 50 mg/L"],
  ["O=C(O)c1cn(C2CC2)c2cc(N3CCN(C(=O)CCSc4nnnn4Cc4ccccc4)CC3)c(F)cc2c1=O", "15.6 mg/L"],
  ["O=C(O)c1cn(C2CC2)c2cc(N3CCN(C(=O)CCSc4nnnn4-c4ccc(C(F)(F)F)cc4)CC3)c(F)cc2c1=O", "15.6 mg/L"],
  ["CCn1cc(C(=O)O)c(=O)c2cnc(N3CCNCC3)nc21", "31.2 mg/L"],
  ["O=C(O)c1cn(C2CC2)c2cc(N3CCN(C(=O)CCSc4nnnn4-c4ccc(F)c(F)c4F)CC3)c(F)cc2c1=O", "15.6 mg/L"]
]}

// lookup MIC for O=C(O)c1cn(C2CC2)c2cc(N3CCN(C(=O)CCSc4nnnn4-c4ccc(Br)cc4)CC3)c(F)cc2c1=O
15.6 mg/L

// lookup MIC for O=C(O)c1cn(C2CC2)c2cc(N3CCN(C(=O)CCSc4nnnn4-c4ccccc4)CC3)c(F)cc2c1=O
15.6 mg/L

// lookup MIC for CCn1nnnc1SCCC(=O)N1CCN(c2cc3c(cc2F)c(=O)c(C(=O)O)cn3C2CC2)CC1
15.6 mg/L

// lookup MIC for COc1cc(-n2nnnc2SCCC(=O)N2CCN(c3cc4c(cc3F)c(=O)c(C(=O)O)cn4C3CC3)CC2)cc(OC)c1OC
15.6 mg/L
